- Tested on: K4 kissing-loop RNA reporter
- Experimental details: apparent KD of K4 kissing-loop reporter; higher = weaker reporter binding
- Condition info: Eterna round: R107; input ligand: arginine 13.2 mM
For each record, write down the corresponding apparent KD of K4 kissing-loop reporter.
Respond with the figure and its unit, in that order.

The cases that follow already have their apparent KD of K4 kissing-loop reporter on record.
Sequence data	Assay readout	Reported value
AGUGAAGUUAGUGAUGUGUGAGUUUGGGAAGGAGCGCCGAGAACGGCAGGUAGGUCGCCCAGUGAUGUUGGUGUAAAGAUGAGAG [whbob_Ex_Arginine_A_2t121]	apparent KD of K4 kissing-loop reporter	184 nM
GUAGACGUACCUUCAGUGAUGUUGAAGGAUACCAGAUGUUACCACAUCCCUUGGCAGCCUUGGGAUAACAGUGAGUCGGAAUAUG [Uslediti]	apparent KD of K4 kissing-loop reporter	136 nM

Query sequence follows.
Query: Bench note: what apparent KD of K4 kissing-loop reporter did AACUCUCAGGCACGCGAGUGAUGUUCGCGCCGAGGACCGGUACGGCCGCCACUCGGGCCUGAGAGAGGUUAUCAAAGAUAGCCAA [whbob_SS_tryp_A] show?
Reply: 105 nM

###

- Test system: K4 kissing-loop RNA reporter
- Experimental details: apparent KD of K4 kissing-loop reporter; higher = weaker reporter binding
- Condition info: Eterna round: R107; input ligand: tryptophan 2.4 mM
Assay readout: apparent KD of K4 kissing-loop reporter (nM)
One number for each entry, in nM.

The cases that follow already have their apparent KD of K4 kissing-loop reporter on record.
Sequence data	Reported value
GUAACCUUGCUCGAGUGAUGUUCGAGCGAAGGAGCGCGAGAAAUCGCAGGUAGGUCGCGCUCGAAAUUUGAGCGAACAAUUAUUA [Arg A Ex t2]	113
UUUCGUUUCGUCUGACAUAAUUGGCUAGAAGGAGCGGUAAAAUUACCAGGUAGGUCGCUAGCCCAGUGAUGUUGGGACUAGCAUA [Onqudi]	171
AGUGCACUGUCAGGAUAUAUACAGUGAUGUUGUGUAUGUCAGCAAGUCAAAGACUUGCUGUUCUGUGUAGAAGGGACUGUGUACA [Omei KL FMN B Exc A v3]	426
UCGGACCCUGGAGGAUAUGAGUCGAGUGAUGUUUGGCGGUCCAUGCCGGUGCGGCGUUAUGCCCUUUUAGAAGGCCAGGGUCCGA [#2 Exclusion - FMN B Attempt #13 (HarryS)]	289
GAUUCUGUUCGAAAGAACGGAAUCACGGAAGGAGCGAGAGAAAUCUCAGGUAGGUCGCCGAAUUUUUGAUAGUGAUGUUAUCAUU [Arginine A K4 2]	426
CGUUUAUAGCAGGAUACCAGUACCCAUAAAGUACGUUAAUAGUAGAGUGAUGUUCUGAAGUACCCUUGGCAGCUUCCGGUAAGUG [#25 K4 Theophylline B Exclusion]	134
AAGGGCUAGGCGGCCGCCACUGGUCGUGAACACAUACGAGCCAGUGAUGUUGGUAUUGUGUGCGGCAGGACCGGGCCUAGCCGAA [Exclusion - Tryptophan B (Freestyle 24)]	462
GUGAAUGGCUGAGCAGCCGUGGUACGAGAUACCAGUGAUUUCGAUCACCCUUGGCAGCUCGGCGUGAGUGAUGUUCACGCUACAC [Theo A SS t12a]	270
GGAUCCACCAGUGAUGUUGGAGAAAACUCCAAGGAUAUGACGAAAGUCAGAAGGUGGUAGACUGGACAAAGUCCGGUAGGAUCCA [FmnA10 A78]	193
UACUGGGCGAGUGAUGUUCGCUCACGUGAUACCAGUGCCAUCCAACACCCUUGGCAGCACGCGGGCAGUGAUGUUGUCCUUGUAU [Exclusion Theophylline A GF 5]	111

Please give apparent KD of K4 kissing-loop reporter, item by item, for the list that follows.
1. UGUGUUGUUUUGAUGUUUGGUGUUGCUUGGCAGGAUAUCGUAGAGGCGAGAAGGGCUUGUGAGCGGUAUGAGUGAUGUUUGUAGG [zwwrmullin]
2. GGGUCAGUCUGAAGGAGCGGCCAGACAGAGCAGUGAUGUUGCUCCUAAUUUAAAAGUGUCGGCCAGGUAGGUCGCAGAUUGGCUC [Dienralais]
3. UAUACUAGACAAGAGAGAAUUCUCUCAAGAGAGGAUAUCCGAAUUCGGAGAAGGCUCUCUCAGUGAUGUUGGGAAUAGUCUAGAA [AK6 SS FMN A]
4. GGCAUAUGAAAUCGCCUAGAGAGAAAGGAUACCAGCACCCGGCGGUGCCCUUGGCAGCCUAGCCCAGUGAUGUUGGGUCCUCUAA [Rasoonanxe]

Reply:
336
165
177
144

Please give apparent KD of K4 kissing-loop reporter, item by item, for the list that follows.
1. AAGGCAAUUCGAGGAUAUCACAUACACUCCUUGAAUCAAGGAGUGAUGUUCCUUGAAGUGUAUGCAUGAGAAGGCGAAUUGCCUU [#05 K4 FMN B Same State]
2. UGACGUUUGGGAAGGAGCGGAAUGUAAUACGGAGCGCGUGGAGAUGCAGUGAUGUUGCAGAUCCAGGUAGGUCGCCCAAGGGACG [Zati]
3. GAUUCAGUGAUGUUGGAAGGCGAGCGGGAUACCAGCCGAGACUCAGGCCCUUGGCAGCCCACAUAUCCCAGGUAGAUAGUCGAUC [Same State - Theophylline A (Freestyle 9)]
4. UGUGCCAACAGUGAUACCAGCGUGGAGUGAUGUUCCGAGGAUCGGAGUGAUGUUCCGAAGCGCCCUUGGCAGCGCAGAAGCGCGA [Exclusion Theophylline B GF 26]

Reply:
1. 95.3
2. 79.6
3. 160
4. 182

###

- Test system: K4 kissing-loop RNA reporter;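 note: bound reporter read as fluorescence of individual clusters on recovered sequencing chips by microscopy, with normalized cluster intensities fitted with a binding model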
- Experimental details: apparent KD of K4 kissing-loop reporter; higher = weaker reporter binding
- Condition info: Eterna round: R107; input ligand: FMN 200 uM
Outcome label depends on apparent KD of K4 kissing-loop reporter relative to 100 nM: at/above gives t, below gives f.

The examples below pair each entry with its known result.
Sequence data	Assigned label
GGUUUAUAGGAGGAUACCAGUACGGAUAAAGUACGUUAAUAGUAGAGUGAUGUUCUAAAGUACCCUUGGCAGCUUAGAGUAAGUU [ExTheophylB.K]	f
UCUUGUUCAUAGUGAUGUUAUGAGCUUAGAAAGGAUAUGAUCAACAUCAGAAGGUUCAAGGAUUCCCGACUCCAACUUCGGUUUC [theeternabot_sameState_KL_FMN_A_43]	t
CGCAGUGAUGUUGCGAGUAGCUACAGGGAAGGAGCGUGCUAGAGCACAGGUAGGUCGCCCAGUGGCAGUGAUGUUGCCAAAGGGU [Exclusion ARginine A GF 17]	t

Query: Threshold query (apparent KD of K4 kissing-loop reporter >= 100 nM) on UGGAGUUGACGAAAAGUCAACUCCUGAGAUACCAGUGACGAAAGUCACCCUUGGCAGCUCACUGCCAGUGAUGUUGGUAAAUAAA [#OpenEnded 3]
Reply: f

Query: Threshold query (apparent KD of K4 kissing-loop reporter >= 100 nM) on UCUGCAAAGUCGGCCGCCACUCCGGGCCCUAUAAAUGGGCGCAGUGAUGUUGCGGCUAGGCCUCUGAGGACCGGGACUUUAUAGA [Anarisgema]
Reply: f

Query: Threshold query (apparent KD of K4 kissing-loop reporter >= 100 nM) on GAACCAGAGGUUGCUGCGGGUUCCAGAGAUACCAGCCGUAUUGAAGGCCCUUGGCAGCUCGAGUGAUGUUCGAGCCGCCUCUGGC [Antius]
Reply: t

###

- System: MS2 coat protein
- Experimental details: apparent KD of MS2 coat protein; higher = weaker reporter binding
- Condition info: Eterna round: R107; input ligand: theophylline 20 uM
For each record, write down the corresponding apparent KD of MS2 coat protein.
Respond with the figure and its unit, in that order.

Sequence data	Experimental target	Reported value
UUUGCACAUGAGGAUCACCCAUGUACAGAUACCAGCCUCAUCUACGGCCCUUGGCAGCUGAGACAAUGGUGACGUGAUGGGCUUU [Iserraxeso]	MS2 coat protein	14.7 nM

Please give apparent KD of MS2 coat protein, item by item, for the list that follows.
1. ACUGGAGGUGGAAGGAGCGGGAGACAUGAGCAUCACAUGAGGAUCACCCAUGUAGGAUCAUCCCAGGUAGGUCGCCAUGUCGAAA [rtfemullin]
2. AGCGAUUUCGGAAGGAGCGGUACAUGAGGAUCACCCAUGUAUUCAAUCGUGAUCGGCGCGUGCCAGGUAGGUCGCCGAAGGCGUC [Veatat]
3. AUCAUGGCCAUCGAUACCAGCUACAUGAGGAUCACCCAUGUAAACGGCGCGGUGAGAUGUAGCCCUUGGCAGCGAAGGGUCAAGG [Beonrexe]
4. GUCUGUGUCUGAAGGAGCGACAUGAGGAUCACCCAUGUCUCCCGUUAUGGGAGUUCCUUAGGUCAGGUAGGUCGCAGACACAGAC [#1 Exclusion - Arginine B Attempt #27 (Inspired by Omei)]
5. UGGUCACUAGGAGAUACCAGCCGACAUGAGGAUCACCCAUGUAACCGGCGUCCUCCCUUAGGCCCUUGGCAGCUCGUAGUUGCUC [Vebice]
6. AGAGCAUUGACGGCCGCCACUCAUGUCACAUGAGGAUCACCCAUGUGAUGGGUAAUUGCCCGGUUGAGGACCGGGUCAAUGCUCA [Omei Tryp SS B v4]
7. UAUAUAGAUGGAAGUCAUAUAGAUGCAGAAGGAGCGUAGGAAACUACAGGUAGGUCGCUGAGGUACAUGAGGAUCACCCAUGUAG [SSArg A #18 Slice of Pi]

Reply:
["292 nM", "14.9 nM", "49.2 nM", "164 nM", "22.5 nM", "11.3 nM", "34.1 nM"]

Please give apparent KD of MS2 coat protein, item by item, for the list that follows.
1. AACAUGAGGAUCACCCAUGUCGGGCCGGUGCGAGGACCGGUACGGCCGCCACUCGAGACAUGAGGAUCACCCAUGUAGGGCGAGA [Exclusion Tryptophan A GF22]
2. AUUAAAGUUUAUAAGGAAAUUGAAACAGAAGGAGCGUGAGUAAUCACAGGUAGGUCGCUGGUAGUACAUGAGGAUCACCCAUGUU [JR_Nu_SSArginiA_Sub020]
3. UUUUUCAUAGGUUAUAGUUAAGAAACUGAAGGAGCGUGGUAAUACACAGGUAGGUCGCAGAUUUUACAUGAGGAUCACCCAUGUU [JR_SSArginiA_Sub009]
4. AAAACACAUGAGGAUCACCCAUGUCAUGAUACCAGUCAACAUGAGGACCCUUGGCAGCAUAAAAUGGGUAACAUGAGGAUCACCC [AstrosEXyTheA#1]

Reply:
["70.7 nM", "30.6 nM", "31.9 nM", "93.8 nM"]
